Listed next: entries and their corresponding MIC.
# Tested on: Escherichia coli K12
# Assay type: cell-based
# Recorded Conditions: K12, read-out: Minimum Inhibitory Concentration E. coli K12, M9 plus 5 µg/mL PABA
Readout Name: MIC (µM)

• Cc1cc(NS(=O)(=O)c2ccc(N)cc2)no1 [parent sulfonamide of 15, sulfamethoxazole] = 263
• COc1cc(NS(=O)(=O)c2ccc(N)cc2)nc(OC)n1 [parent sulfonamide of 19, sulfadimethoxine] = 537

----------
Listed next: entries and their corresponding MIC.
# Test system: Escherichia coli K12
# Assay type: cell-based
# Recorded Conditions: K12, read-out: Minimum Inhibitory Concentration E. coli K12, M9 plus 20 µg/mL Methionine
Readout Name: MIC (µM)

* Cc1cc(NS(=O)(=O)c2ccc(N)cc2)no1 [parent sulfonamide of 15, sulfamethoxazole] | 1.5
* Nc1ccc(S(=O)(=O)c2ccc(N)cc2)cc1 [parent sulfonamide of 21, 4-[(4-aminobenzene)sulfonyl]aniline] | 50
* Nc1ccc(S(N)(=O)=O)cc1 [parent sulfonamide of 22, sulfanilamide] | 58
* COc1cc(NS(=O)(=O)c2ccc(N)cc2)nc(OC)n1 [parent sulfonamide of 19, sulfadimethoxine] | 3.4
